conditions: a range is the spread between reports
Measured Attribute: melting point

| Compound Structure | melting point |
| --- | --- |
| c1ccc2nc3ccccc3cc2c1 | 108 to 109 °C |
| CC(C)CC(=O)CC(C)C | -42 to -41.5 °C |
| Clc1cncc(Cl)c1 | 65 to 66 °C |

Shifting focus to the compound that follows.
What value of melting point has been reported for the following compound? c1ccncc1
-42 to -41.6 °C

====

Recorded measurements of melting point, one per entry
details: a range is the spread between reports

Reference set, count: 5
| Compound | melting point |
| --- | --- |
| Nc1ccc(F)c([N+](=O)[O-])c1 | 96 to 97.5 °C |
| Cc1ccc2cc3c(ccc4ccccc43)c3c2c1CC3 | 180 °C |
| O=C(O)c1ccc2c(c1)C(=O)OC2=O | 162 to 167 °C |
| O=C1C=CC(=O)N1 | 92 to 94 °C |
| O=C(c1ccccc1)C(Cl)c1ccccc1 (centres undefined) | 67 to 68.5 °C |

What value of melting point has been reported for the following compound? C#CC1(O)CCCCC1
31.5 to 33 °C

What value of melting point has been reported for the following compound? Oc1ccc(Cc2ccccc2)cc1
83 to 84 °C

What value of melting point has been reported for the following compound? O=c1cn[nH]c(=O)[nH]1
274 to 276 °C

What value of melting point has been reported for the following compound? NCC1CCNCC1
24 to 25 °C

What value of melting point has been reported for the following compound? c1ccc2ocnc2c1
30 to 31 °C

What value of melting point has been reported for the following compound? CCCCCCCCCCCCCCCCCCCC(=O)O
75 to 75.4 °C

What value of melting point has been reported for the following compound? Nc1cc(Cl)ccc1Cl
48 to 50 °C

What value of melting point has been reported for the following compound? CCCCCCN
-23 to -19 °C

What value of melting point has been reported for the following compound? CCC(C)(CO)CO
40.3 to 44 °C

What value of melting point has been reported for the following compound? CCCCCCC(C)=O
-21 to -16 °C

What value of melting point has been reported for the following compound? NC(=O)c1ccc(O)cc1
161 to 162 °C

What value of melting point has been reported for the following compound? CC(=O)Oc1ccc(C(=O)O)cc1
192 to 194 °C

What value of melting point has been reported for the following compound? Cc1ccc2cccc([N+](=O)[O-])c2n1
138 to 140 °C

What value of melting point has been reported for the following compound? CC1(C)NC(=O)NC1=O
176 to 178 °C

====

details: a range is the spread between reports
Measured Attribute: melting point

| Compound Structure | melting point |
| --- | --- |
| COc1ccc(-c2ccccc2)cc1 | 88 to 91 °C |
| CC(=O)C(=O)O | 11 to 13.8 °C |

Shifting focus to the compound that follows.
What value of melting point has been reported for the following compound? O=C(O)CCBr
60 to 62.5 °C

====

conditions: a range is the spread between reports
Measured Attribute: melting point

| Molecule | melting point |
| --- | --- |
| Clc1ccc(Cl)nc1 | 60.5 to 61 °C |
| O=C(O)Cc1ccc(O)c(O)c1 | 128 to 129 °C |
| CC(C)C(O)C(C)(C)C (configuration not stated) | -13 to -11 °C |
| CCCCCCC(C)O (configuration not stated) | -32 to -31.6 °C |
| O=C(O)c1cccc(I)c1 | 187 to 188 °C |

What value of melting point has been reported for the following molecule? CCSSCC
-102 °C

What value of melting point has been reported for the following molecule? O=Cc1ccccc1Cl
9 to 12.4 °C

What value of melting point has been reported for the following molecule? C=C(C)CCCCCC
-78 to -77.8 °C

What value of melting point has been reported for the following molecule? CC(=O)O[Si](C)(OC(C)=O)OC(C)=O
40.5 to 43 °C

What value of melting point has been reported for the following molecule? CC(C=CC1=C(C)CCCC1(C)C)=CC=CC(C)=CCO
63 to 63.5 °C

What value of melting point has been reported for the following molecule? CC(C)(C)Cl
-26 to -25 °C

What value of melting point has been reported for the following molecule? O=[N+]([O-])NC1=NCCN1Cc1ccc(Cl)nc1
140 to 144 °C
